These measurements were taken from paper PMC7139388.

- experimental_system: human 17β-HSD10 enzyme (Homo sapiens, UniProt Q99714)
- Construct: made in house; host or cells: Escherichia coli BL21 (DE3)
- Sequence (Q99714 whole entry): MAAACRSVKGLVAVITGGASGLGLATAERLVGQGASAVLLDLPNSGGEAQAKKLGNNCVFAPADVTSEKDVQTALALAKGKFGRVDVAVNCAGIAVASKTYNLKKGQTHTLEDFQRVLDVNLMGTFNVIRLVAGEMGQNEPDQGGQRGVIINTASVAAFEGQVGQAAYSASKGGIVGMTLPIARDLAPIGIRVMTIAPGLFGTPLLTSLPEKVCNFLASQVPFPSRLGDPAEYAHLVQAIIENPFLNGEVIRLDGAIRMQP
- protocol_description: 17β-HSD10 enzyme inhibition screening and IC50 determination (AAC reductase assay, NADH absorbance at 340 nm)
- Assay type: biochemical
- condition: 10 μM compound; 320 μM AAC, 320 μM NADH, 37 °C; read-out: Percentage of Residual Activity at 10 μM
Flag rule - remaining activity at 10 µM less than 70% flags Met; the remaining entries get Not met.

compound="COc1cc(NC(=O)Nc2nc3ccc(Cl)cc3s2)ccc1O [Compound 4ah]" answer_label="Not met"
compound="O=C(Nc1ccc(O)c(Cl)c1)Nc1nc2ccc(I)cc2s1 [Compound 4ax]" answer_label=Met
